Target: Recombinant Csk (Homo sapiens, UniProt P41240)
Sequence (P41240 whole entry, species assumed): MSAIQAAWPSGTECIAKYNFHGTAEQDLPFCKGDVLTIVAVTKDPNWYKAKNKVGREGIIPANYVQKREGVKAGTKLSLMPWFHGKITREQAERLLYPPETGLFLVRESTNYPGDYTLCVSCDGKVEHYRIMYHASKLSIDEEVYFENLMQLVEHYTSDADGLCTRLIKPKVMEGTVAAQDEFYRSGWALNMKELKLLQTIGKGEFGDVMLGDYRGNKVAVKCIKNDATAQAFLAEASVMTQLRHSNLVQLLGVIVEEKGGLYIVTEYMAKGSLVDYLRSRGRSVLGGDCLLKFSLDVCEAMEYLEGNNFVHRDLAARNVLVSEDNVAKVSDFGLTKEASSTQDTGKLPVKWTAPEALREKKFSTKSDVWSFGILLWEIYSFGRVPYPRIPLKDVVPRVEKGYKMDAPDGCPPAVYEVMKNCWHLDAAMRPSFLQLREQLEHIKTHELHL
Assay: Csk tyrosine kinase activity, poly E4Y / 32P-ATP phosphorylation assay
Type: biochemical
Settings: Table 2, Formula I compounds; NI = no inhibition at 100 μg/mL
# if measured IC50 < 10 µM: 1.0  # else: 0.0

Example results:
INSERT INTO assay_data (compound_smiles, classification) VALUES
  ('Cc1ccc(S(=O)(=O)Nc2cc(SCc3ccccc3Cl)c([N+](=O)[O-])cc2NS(=O)(=O)c2ccc(C)cc2)cc1', 1.0),
  ('Cc1ccc(S(=O)(=O)Nc2cc(Sc3ccccc3Cl)c([N+](=O)[O-])cc2NS(=O)(=O)c2ccc(C)cc2)cc1', 0.0),
  ('CS(=O)(=O)Nc1cc(Sc2ccc(Cl)cc2)c([N+](=O)[O-])cc1NS(C)(=O)=O', 0.0),
  ('Cc1ccc(S(=O)(=O)Nc2cc(-c3ccccc3)c([N+](=O)[O-])cc2NS(=O)(=O)c2ccc(C)cc2)cc1', 0.0);

Please find the next compound below.
Please indicate whether the reported IC50 of Cc1ccc(S(=O)(=O)Nc2cc(Sc3cccc(C)c3)c([N+](=O)[O-])cc2NS(=O)(=O)c2ccc(C)cc2)cc1 is strictly below 10 µM. 1.0
